The reported measurements were obtained from patent US6822003B2.

test.system: rat lens aldose reductase (Rattus norvegicus, UniProt P07943)
pIC50: −log10 of the molar value.
metric.name: pIC50

compound	test.system	metric.name	measured.value
CCCCCCOc1cc(O)cc2c1C(=O)C(O)=CC2=O [Compound 1]	rat lens aldose reductase (Rattus norvegicus, UniProt P07943)	pIC50	4.58
